Source: a melting point compilation (Tetko et al.; mined from patent text by program, amines drawn as free bases though some values may be those of a salt)

quantity: melting point

Recorded results for 5 compounds are shown here.
COc1cc(CC(=O)O)ccc1CNC(=O)C1Cc2ccccc2N1S(=O)(=O)c1ccc(-c2cccc(C(F)(F)F)c2)cc1 (centres undefined) ... 99 to 105 °C
CSc1c(OCC(=O)O)ccc2c3ccccc3n(Cc3ccccc3)c12 ... 188 to 189 °C
O=C1C(O)=C(c2ccc3ccccc3c2)C(=O)C(O)=C1c1ccc2ccccc2c1 ... 328 to 329 °C
CCCCOc1ccc(Cc2cnc(N)nc2N)cc1OC ... 143 to 147 °C
CCOc1cc(N)ccn1 ... 88 to 89 °C

Exercise: Name the reported melting point value associated with the compound CCCc1nc2c(NOC)nc(C(c3ccccc3)(c3ccccc3)c3ccccc3)nc2n1CO
Key: 188 °C

Exercise: Consider the compound shown here: CN(O)C(=O)c1cccc2c1[nH]c1c3cc(Br)ccc3oc21 What is its recorded melting point?
Key: 174 to 175 °C

Exercise: GET /values?readout=melting point&item= CSC(C)=NOC(=O)N(C)SN(C)C(=O)ON=C(C)C(C)=NOC(=O)N(C)SN(C)C(=O)ON=C(SC)C(=O)N(C)C
Key: 87 to 110 °C

Exercise: Please give the measured melting point for this compound: COc1ccc(CCn2ccc3ccc(-c4cccc(C(=O)NCCN(C)C)c4)nc32)cc1OC
Key: 97 to 98 °C

---

melting point values, listed per item

O=C(O)/C=C/C(=O)/C=C/c1ccc(F)cc1 ... 160 to 162 °C
CNC1(CC2CCCCC2)C(=O)N(S(=O)(=O)c2ccc([N+](=O)[O-])cc2OC)c2ccc(Cl)cc21 (stereo unspecified) ... 207 °C
CCOc1cc(C(CC(C)O)N2C(=O)c3cccc(NC(C)=O)c3C2=O)ccc1OC (stereo unspecified) ... 132 to 134 °C

Exercise: State the recorded melting point for this entry: COc1ccc(CC(O)c2cc(OC)cc(OC)c2)cc1 (stereo unspecified)
Key: 101 to 102 °C

Exercise: // melting point lookup, key: Cn1nc(-c2ccc(OCCCCl)cc2)ccc1=O
Key: 186 to 187 °C

---

quantity: melting point

CC(=O)Nc1ccc(C(=O)N2CC2C#N)c(OC(C)=O)c1 (stereo not given) ... 118 to 120 °C

Exercise: Look up melting point: CCOC(=O)c1csc(Nc2ccccc2)n1
Key: 140 to 142 °C

Exercise: Quick one: melting point of NC(=O)COc1ccc(CCNS(=O)(=O)c2ccc(Cl)cc2)cc1 ?
Key: 158 to 159 °C

Exercise: Given the entry CC(C#Cc1cccc(C2=NCC(c3ccccc3)O2)c1)N(O)C(N)=O (stereo not given) , report its measured melting point.
Key: 145 to 146 °C

Exercise: Reported melting point, compound CCN(CC)C(=O)c1cc(-c2ccccc2)c2occc2c1 : ____
Key: 56 °C

---

quantity: melting point

Cc1ccc(C)n1CCC1SCCC(=O)NC1C(N)=O (configuration not stated) ... 181 to 183 °C
COc1ccc(-c2cc3c(N4CCOCC4)nnc(N4CCOCC4)c3c(C)n2)cc1 ... 206 to 209 °C
Cc1cccc(NC(=O)CN2CCN(c3ccccc3C)CC2)c1 ... 104 to 106 °C

Exercise: May I ask what melting point has been recorded for COc1cccc(OC)c1C(=O)Nc1nnc(-c2cccc(O)c2)s1 ?
Key: 243 to 245 °C

Exercise: Recorded melting point for CCCCc1nc2c(N)nc3cccnc3c2n1CCCCN1CC(C(N)=O)=CC=C1N1CCOCC1 , please?
Key: 95 to 100 °C

Exercise: // melting point lookup, key: O=C(N1CCC(n2c(=O)[nH]c3ncccc32)CC1)n1ccnc1
Key: 226 °C

---

As shown below, each of these compounds has a reported melting point value.

CCCCCCCCCCC1CN(O)C(=O)N1C (stereo unspecified) ... 47 to 48 °C
COC(=O)C(Cc1cc(OC)cc(C(F)(F)F)c1)NC(=O)c1ccccc1 (stereo unspecified) ... 133 °C
CC(C)N1CCCN=C1SC1=C(O)CC(c2ccccc2)OC1=O (stereo unspecified) ... 103 to 105 °C
Fc1cc(-c2ncon2)ccc1CBr ... 87.3 °C
OCC1CC2CCC13CN(CC1CC1)CCC31c3cccc(O)c3OC21 (stereo unspecified) ... 187 to 190 °C
CSc1ccc(C(=O)Cc2cccc(F)c2)cc1 ... 94.5 to 95.5 °C
CC1(C)OC(=O)C(C(c2ccccc2)c2c[nH]c3ccccc23)C(=O)O1 (stereo unspecified) ... 147 to 150 °C
CCCNC(=O)c1ccc(-c2nc(=O)c3ccccc3s2)nc1 ... 268 to 269 °C
Fc1ccc(-c2cc(Br)sc2-c2ccc(F)cc2)cc1 ... 91 to 93 °C
Cn1nc2c(N)nc3c(c2c1CCC1CCCCC1)CCCC3 ... 230 to 231 °C

Exercise: State the recorded melting point for this entry: CCc1nnc(-c2ccc(OC)c(OC)c2)n1-c1ccc(OC)cc1
Key: 148 °C

---

melting point by entry:

These solved cases illustrate the format of a correct answer.
CCN(C(=O)Cn1c(=O)n(C)c2nc(-c3ccccc3)ncc21)c1ccc(O)cc1 ... 254 to 256 °C
COC(=O)C1=C(C)NC(C)=C(C(=O)OCCN2CCN(C(c3ccccc3)c3ccccc3)CC2)C1c1ccco1 (stereo not given) ... 71 to 77 °C
CCC(CC)(CCC#N)C(NC(=O)c1ccc(Cl)cc1)NC(=N[N+](=O)[O-])Nc1cccnc1 (stereo not given) ... 100 to 110 °C
O=C(O)CN1C(=O)[C@@H](N[C@@H](CCC2CCCCC2)C(=O)O)COc2ccccc21 ... 202 to 205 °C
CC(C)(C)Nc1ccccc1C(CCC1CCCCC1)C(=O)c1cccc(Cl)c1 (stereo not given) ... 150 to 152 °C

Exercise: Look up melting point: COc1ccc(-c2cnn3c(N)c(-c4ccc(F)c(F)c4)c(C)nc23)cc1OC
Key: 230 to 235 °C

Exercise: What value of melting point has been reported for the following compound? COC(=O)c1cc2ccc(OC)cc2o1
Key: 97 to 98 °C

Exercise: Recorded melting point of O=C(Nc1cccc(C(F)(F)F)c1)c1cccc(Oc2cccc(C(F)(F)F)c2)n1 , please.
Key: 93.1 to 93.7 °C

Exercise: Entry CC(C)(CNC(=O)C(C)(C)CCC(=O)O)SN=O : reported melting point = ?
Key: 100 to 101 °C

Exercise: Sample Cc1cc(S(=O)(=O)Nc2ccc(Cl)cc2)c2c(C)ccc(C(C)C)cc1-2 — what was its melting point?
Key: 134 to 135 °C

Exercise: Could you tell me which melting point is on file for CCCCc1nn(-c2ccc(C(F)(F)F)cn2)cc1C(=O)OCC ?
Key: 58 to 59 °C

Exercise: I have this compound here, COC(=O)C(C)(C)OCC#Cc1cc(C(F)(F)F)ccc1NS(=O)(=O)c1ccc2c(c1)CCN2C(C)=O , and I need its recorded melting point.
Key: 134 to 136 °C

Exercise: Endpoint output: melting point of COc1ccc(Br)c(COc2cccc3cc(OC)ccc23)c1 . Value?
Key: 83 to 84 °C

Exercise: Reported melting point, compound Cc1c2c(cnc3ccccc32)nn1-c1ccccc1 : ____
Key: 128 to 130 °C

Exercise: Fill in the blank: the reported melting point of Clc1ccc(NC2=NCCN2)c(Cl)c1 is ____.
Key: 138 to 139 °C

Exercise: For CONC(=O)Nc1ccc(-c2sc3c(c2CCl)c(=O)n(-c2ccccc2)c(=O)n3Cc2c(F)cccc2F)cc1 , what is its reported melting point?
Key: 217 to 219 °C

Exercise: Can you share its melting point? I mean this compound: CNC(=O)NNC1=NS(=O)(=O)c2ccccc21
Key: 183 °C

Exercise: What value of measured melting point is listed for CSc1nc(C)c(CCN2CC=C(c3c[nH]c4ccccc34)CC2)c(=O)n1C ?
Key: 245 to 246 °C

Exercise: Recorded melting point of COC(=O)c1ccccc1OCCOc1cccc2ccccc12 , please.
Key: 132 to 137 °C

Exercise: For the compound shown here, CCOc1nc2cc(OC)cc(C)c2c(=O)o1 , give the reported melting point.
Key: 138 to 140 °C

---

This listing pairs compounds with measured melting point.

COC(=O)CCSC(SCCC(=O)OC)c1cccc(C=Cc2nc3cc(Cl)ccc3o2)c1 ... 66 to 67 °C
CCN(c1cc(Cl)ccc1C(=O)c1cnoc1C1CC1)S(C)(=O)=O ... 114 to 116 °C
COCCOc1ccc(CCCOC(=O)NS(N)(=O)=O)c(Oc2ncc(Cl)cc2Cl)c1 ... 153 to 154 °C
COCCOc1ccc(NC(=O)OCc2ccccc2)cc1C(=O)O ... 130 to 131 °C
COc1cccn2c(=O)c3c(nc12)C(=Cc1ccccc1)CC3 ... 212 to 214 °C

Exercise: Which melting point is listed for COc1cc(NC(=O)Nc2ccc3c(c2)CCN(C(=O)Nc2ccc(OCCO)cc2Cl)C3)cc(OC)c1 ?
Key: 105 to 110 °C

Exercise: Value lookup for melting point; key = CSc1ccc(C(=O)NC[C@H]2O[C@@H]2c2ccccc2)cc1 (racemic)
Key: 110 °C
